# experimental.conditions: in n-butanol, 308.1 K
attribute.measured: solubility (mole fraction)
Lab note: jot down the number only; don't add units.

Request: Returns the measured solubility (mole fraction) for the input molecule. Input: C1=Cc2cccc3cccc1c23
Response: 0.0349

###

# experimental.conditions: in n-butanol, 278.25 K
attribute.measured: solubility (mole fraction)
Lab note: jot down the number only; don't add units.

Request: Returns the measured solubility (mole fraction) for the input compound. Input: C1=Cc2cccc3cccc1c23
Response: 0.0101

###

# experimental.conditions: in toluene, 288.1 K
attribute.measured: solubility (mole fraction)

Request: Returns the measured solubility (mole fraction) for the input compound. Input: C1=Cc2cccc3cccc1c23
Response: 0.142
